property: melting point

Worked examples, 2 compounds total:
- Cc1cc(F)ccc1C1CNCC(C)N1C(=O)N(C)Cc1cc(C(F)(F)F)cc(C(F)(F)F)c1.Cl (stereo not drawn): > 200 °C
- Cc1cc(C2CNCCN2C(=O)N(C)Cc2cc(C(F)(F)F)cc(C(F)(F)F)c2)ccc1F.Cl (stereo not drawn): 70 to 72 °C

Give me measured melting point, please, for this compound: Cc1cc(F)ccc1C1CNCCN1C(=O)N(C)Cc1cc(C(F)(F)F)cc(C(F)(F)F)c1.Cl (stereo not drawn) > 220 °C

Answer with the recorded melting point of CN(Cc1cc(C(F)(F)F)cc(C(F)(F)F)c1)C(=O)N1CCNCC1c1ccc(F)cc1F.Cl (stereo not drawn) only. 220 to 230 °C

Name the recorded melting point of the item CC(C)c1cccc(C2CNCCN2C(=O)N(C)Cc2cc(C(F)(F)F)cc(C(F)(F)F)c2)c1.Cl (stereo not drawn) in your answer. 77 to 80 °C

Give the value of melting point reported for the following: CN(Cc1ccc(C(F)(F)F)c(C(F)(F)F)c1)C(=O)N1CCNCC1c1ccc(F)cc1.Cl (stereo not drawn) > 200 °C
